test system: Klebsiella pneumoniae; test: Antibacterial activity against Klebsiella pneumoniae assessed as growth inhibition by microdilution broth susceptibility assay; format: functional
Readout Kind: MIC
Quick note: number first, unit second.

{"Mol Smiles": "Cc1c(-c2nn3c(-c4ccccc4)nnc3s2)[se]c2ncnc(Nc3ccc(F)c(Cl)c3)c12", "Measured": "100 µg/mL"}
{"Mol Smiles": "Cc1c(-c2nn3c(-c4ccc([N+](=O)[O-])cc4)nnc3s2)[se]c2ncnc(Nc3ccc(F)c(Cl)c3)c12", "Measured": "50 µg/mL"}
{"Mol Smiles": "COc1ccc(-c2nnc3sc(-c4[se]c5ncnc(Nc6ccc(F)c(Cl)c6)c5c4C)nn23)cc1", "Measured": "6.25 µg/mL"}

Entry `O=C(O)c1cn(C2CC2)c2cc(N3CCNCC3)c(F)cc2c1=O` has what MIC?
6.25 µg/mL

Hello, the source for this data is ChEMBL document CHEMBL3124903, in case you need it.
